Cited source for all entries: patent US20090209552A1

# tgt: human CRTh2 (Homo sapiens, UniProt Q9Y5Y4)
# Sequence (Q9Y5Y4 whole entry): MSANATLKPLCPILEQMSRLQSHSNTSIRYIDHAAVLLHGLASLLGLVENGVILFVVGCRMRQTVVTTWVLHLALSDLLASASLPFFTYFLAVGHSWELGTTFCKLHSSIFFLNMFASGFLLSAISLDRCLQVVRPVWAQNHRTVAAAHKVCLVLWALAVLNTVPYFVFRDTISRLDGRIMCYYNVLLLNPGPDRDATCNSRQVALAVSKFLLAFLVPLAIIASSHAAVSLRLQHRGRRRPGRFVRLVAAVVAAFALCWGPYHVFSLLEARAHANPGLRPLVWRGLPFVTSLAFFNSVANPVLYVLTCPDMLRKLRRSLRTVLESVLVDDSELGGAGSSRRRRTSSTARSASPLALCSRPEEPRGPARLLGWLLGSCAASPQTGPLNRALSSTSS
# protocol: CRTH2 cAMP functional assay in CHO.K1-CRTh2 cells
# recordedConditions: inhibition of PGD2-mediated attenuation of forskolin-induced cAMP accumulation in CHO.K1-CRTh2 cells
# Method: where S is the concentration of radioligand and Kd is the dissociation constant. CRTH2 cAMP Functional Assay Protocol This assay is conducted in CHO.K1-CRTh2 cells. cAMP is generated in the cell by stimulating cells with 5 μM forskolin, an adenylate cyclase activator. […] In addition, a cAMP standard is serially diluted in assay stimulation buffer and added to separate empty wells on the assay plate (20 μL/well). The cAMP standard allows for the quantification of cAMP generated in CHO.K1-CRTH2 cells. […]

{"structureAsSmiles": "N#Cc1cn(CC(=O)O)cc1-c1cc(Cl)cc(S(=O)(=O)N2CCN(c3ccccc3F)CC2)c1", "IC50, nM": 26}
{"structureAsSmiles": "Cc1ccc(CNS(=O)(=O)c2cc(-c3cn(CC(=O)O)cc3C#N)cc(C(F)(F)F)c2)o1", "IC50, nM": 5}
{"structureAsSmiles": "N#Cc1cn(CC(=O)O)cc1-c1cc(C(F)(F)F)cc(S(=O)(=O)N2CCN(Cc3ccncc3)CC2)c1", "IC50, nM": 2}
